B1: PSD2 (parent)
chain: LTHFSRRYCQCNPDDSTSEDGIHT

# Variants of: B1
# protocol-summary: protein stability index of a GFP-peptide fusion (GPS, HEK-293T) (PSI 1-6); higher = more stable;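 also: lentivirally expressed fusions sorted by FACS into six bins by GFP to DsRed ratio, PSI derived from sequencing read proportions per bin multiplied by bin number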
# experimental-conditions: c terminus: a fixed tail appended
Recorded measurements of protein stability index, one per entry
readout: protein stability index

- mutation-annotation: "G21P"
  reported: 3.57
- mutation-annotation: "T2G"
  reported: 3.67
- mutation-annotation: "G21C"
  reported: 2.91
- mutation-annotation: "R6C"
  reported: 2.8
- mutation-annotation: "T24P"
  reported: 3.82
- mutation-annotation: "I22Q"
  reported: 3.85
- mutation-annotation: "H23A"
  reported: 3.66
- mutation-annotation: "C11F"
  reported: 3.12
- mutation-annotation: "H23I"
  reported: 3.21
- mutation-annotation: "C9F"
  reported: 3.83
- mutation-annotation: "R6M"
  reported: 3.29
- mutation-annotation: "Y8I"
  reported: 3.48
- mutation-annotation: "D20R"
  reported: 2.27
- mutation-annotation: "P13F"
  reported: 2.68
- mutation-annotation: "F4M"
  reported: 3.49
- mutation-annotation: "N12C"
  reported: 2.82
- mutation-annotation: "R6T"
  reported: 3.78
- mutation-annotation: "D20K"
  reported: 2.74
- mutation-annotation: "S18L"
  reported: 2.35
- mutation-annotation: "T2S"
  reported: 3.23
- mutation-annotation: "D15E"
  reported: 4.1
- mutation-annotation: "H23S"
  reported: 4.2
- mutation-annotation: "P13Q"
  reported: 3.06
- mutation-annotation: "C9K"
  reported: 4.39
- mutation-annotation: "T17W"
  reported: 2.17
- mutation-annotation: "C9A"
  reported: 4.23
- mutation-annotation: "P13H"
  reported: 2.76
- mutation-annotation: "I22Y"
  reported: 3.29
- mutation-annotation: "I22V"
  reported: 3.71
- mutation-annotation: "S16K"
  reported: 3.48
- mutation-annotation: "F4I"
  reported: 3.17
- mutation-annotation: "Y8R"
  reported: 3.7
- mutation-annotation: "C9L"
  reported: 3.67
- mutation-annotation: "N12T"
  reported: 3.69
- mutation-annotation: "I22W"
  reported: 2.43
- mutation-annotation: "N12M"
  reported: 3.52
- mutation-annotation: "P13W"
  reported: 1.94
- mutation-annotation: "T24A"
  reported: 3.46
- mutation-annotation: "C11V"
  reported: 4.5
- mutation-annotation: "T24Y"
  reported: 2.34
- mutation-annotation: "R6P"
  reported: 3.9
- mutation-annotation: "R7M"
  reported: 3.84
- mutation-annotation: "D20G"
  reported: 2.71
- mutation-annotation: "D15P"
  reported: 2.46
- mutation-annotation: "D14Q"
  reported: 2.54
- mutation-annotation: "E19Q"
  reported: 3.39
